- experiment-notes: NCI Yeast Anticancer Drug Screen. Data for the mec2-1 strain (AID 157)
- conditions-used: S. cerevisiae mec2-1 strain, at 50.0 µM (retest, dose inferred, filed as 5.0), stronger effect = higher value
This is part of a sample that, as a whole, favours compounds with a hit. Of some 79,000 tested, about 15% had one in any assay.

# compound, uom, growth inhibition
records = [
    ("NC(=O)c1cc([N+](=O)[O-])c(Cl)c([N+](=O)[O-])c1Cl", "%", 78),
    ("Cc1cc(C(C)(C)c2ccc(O)c(C)c2)ccc1O", "%", 99),
    ("O=C(O)C(Br)C(Br)C(=O)O.[Ag] (configuration not stated)", "%", 100),
    ("CC1=C(O)C(=O)C=C2C1=CC=C1[C@@]2(C)CC[C@@]2(C)[C@@H]3C[C@](C)(C(=O)O)CC[C@]3(C)CC[C@]12C", "%", 98),
    ("CC(=O)O[C@H]1C(=O)O[C@@H]2C[C@H]3C(C)=CC(=O)[C@@H](O)[C@]3(C)[C@H]3[C@@]4(O)OC[C@]32[C@@H]1[C@@H](C)[C@H]4O", "%", 78),
    ("CC1=NNC(=O)C1(Br)Br", "%", 9),
    ("Cc1ccc(C(=O)C2C(c3ccccc3)N2C2CCCCC2)cc1 (configuration not stated)", "%", 88),
    ("C[C@]12CCCC[C@@H]1CC[C@@H]1[C@@H]2C(=O)C[C@@]2(C)[C@H]1CC[C@]2(C)O", "%", 99),
    ("CCCNC1=C(C)C(=O)C2=C(C1=O)[C@H](COC(N)=O)[C@]1(OC)[C@@H]3N[C@@H]3CN21", "%", 76),
    ("C1CN1[PH+](N1CC1)N1CC1.C1CN1[PH+](N1CC1)N1CC1.[I][Pt][I]", "%", 20),
    ("O=c1c2ccccc2[nH]c(=S)n1-c1cccc(C(F)(F)F)c1", "%", 59),
    ("CC(C)[S-].CC(C)[S-].[Pt+2].c1ccc([PH+](c2ccccc2)c2ccccc2)cc1.c1ccc([PH+](c2ccccc2)c2ccccc2)cc1", "%", 97),
]

---

- experiment-notes: NCI Yeast Anticancer Drug Screen. Data for the cln2 rad14 strain (AID 165);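 note: 0% = growth equal to vehicle treated cultures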
- conditions-used: S. cerevisiae cln2 rad14 strain, at 50.0 µM, stronger effect = higher value
About 79,000 compounds went through this panel and 15% of them were active in at least one assay; those are over-represented in the sample as a whole.
Kindly return True if reported growth inhibition is no lower than -20%; return False if it is lower.

# molecule, cat
rows = [
    ("Cc1cc(Cl)ccc1NC(=O)/C(CC(=O)CC(c1ccccc1)c1c(O)c2ccccc2oc1=O)=N\\O (stereo not given)", "False"),
    ("O=C(CF)[O][Sb]([O]C(=O)CF)([c]1ccccc1)([c]1ccccc1)[c]1ccccc1", "True"),
    ("O=C(O)COc1ccc(Cl)cc1Cl (tested in a mixture with another compound)", "True"),
    ("CC(=O)C1C(c2ccccc2)C2(C)OC(=O)C(C#N)C12C (stereo not given)", "True"),
    ("Nc1ccc([N+](=O)[O-])cc1Cl", "True"),
]

---

- experiment-notes: NCI Yeast Anticancer Drug Screen. Data for the bub3 strain (AID 167)
- conditions-used: S. cerevisiae bub3 mutant strain, at 50.0 µM, stronger effect = higher value
- Protocol: Growth inhibition of yeast strains with defined genetic alterations is measured as a screen for potential anti-cancer activity. Selected strains with alterations in DNA damage repair or cell cycle control were exposed to compounds and growth inhibition was measured relative to vehicle treated controls. The strain used in this assay is bub3
This is part of a sample that, as a whole, favours compounds with a hit. Of some 79,000 tested, about 15% had one in any assay.
Listed here: items and their measured growth inhibition.
reported-endpoint: growth inhibition (%)

# molecule, uom, recorded-result
measured = [
    ("COC1CC2C=C(C)/C=C/C=C/C(=O)NC(c3ccccc3)C/C=C/CCC(O)CC(=O)C2=C1O (stereo not given)", "%", 88.7),
    ("CC(C)(C)C[C](C)(c1ccccc1)[Sn]([CH3])([CH3])[CH3] (stereo not given)", "%", 1.2),
    ("C[C@]12CC[C@H](OC3OC(CO)C(O)C(O)C3O)C[C@H]1CC[C@@H]1[C@@H]2CC[C@]2(C)[C@@H](C3=CCOC3=O)CC[C@]12O (stereo not given in full)", "%", -38.5),
    ("CN(C)C(=O)Oc1c(Cl)cc(S(=O)(=O)F)cc1Cl", "%", 2.65),
    ("Cc1ccc(S(=O)(=O)NNP(Br)(c2ccccc2)(c2ccccc2)c2ccccc2)cc1", "%", 5.35),
    ("c1ccc(N2CCN(Cc3c[nH]c4ccccc34)CC2)cc1", "%", 0.85),
    ("C#CCOC(=O)C=[N+]=[N-]", "%", 3.85),
    ("CC(NC1=NCCO1)c1cccs1 (stereo not given)", "%", 15.7),
    ("COc1cccc(NC2=NCCO2)c1", "%", -2.2),
    ("O=[As](O)(O)Cc1cccc(F)c1", "%", 2.1),
    ("O=[C-]c1ccccc1[C-]=O.[Pd+2].c1ccc([PH+](c2ccccc2)c2ccccc2)cc1.c1ccc([PH+](c2ccccc2)c2ccccc2)cc1", "%", 14.7),
    ("NNc1c(C(N)=O)c2c(N)ncnc2n1C1OC(CO)C(O)C1O (stereo not given)", "%", 4.55),
    ("C/C=C(\\CC)C1(C(C)C)C(=O)NC(=O)NC1=O", "%", 2),
    ("COc1ccc(C(c2c(O)c3ccccc3oc2=O)c2c(O)c3ccccc3oc2=O)cc1", "%", 1),
    ("C[C@@H]1C[C@@H]([C@H](O)CC2CC(=O)NC(=O)C2)C(=O)[C@@H](C)C1", "%", 93.7),
    ("C=C(C)C1C2CC3(C)C4(CO4)C4OC4C3(O)C1C(=O)O2 (stereo not given)", "%", 5.35),
    ("COC(=O)N/N=C(\\C)C(CN(C)C)C(c1ccccc1)c1c(O)c2ccccc2oc1=O (stereo not given)", "%", 49.4),
    ("O=C(O)CNC(=O)c1ccc([As](=O)(O)O)cc1", "%", 22.1),
    ("c1c[nH]c(Cc2ncc(Cc3cnc[nH]3)[nH]2)n1", "%", -13),
    ("CCN(CCCl)c1ccc(NC(=O)c2cc(C(=O)NCCN(C)C)cc(C(=O)Nc3ccc(N(CC)CCCl)cc3)c2)cc1", "%", -1.4),
    ("[Cl][Hg][c]1ccccc1N=Nc1ccccc1I", "%", 99.3),
    ("CCCC1(c2ccccc2)C(=O)NCNC1=O", "%", -25.4),
    ("COC1/C=C/C=C(/C)Cc2cc(O)c(Cl)c(c2)N(C)C(=O)CC(OC(=O)C(C)C)C2(C)OC2C(C)C2CC1(O)NC(=O)O2 (stereo not given)", "%", -6.2),
    ("O=[N+]([O-])C(CO)CCC(CO)[N+](=O)[O-] (stereo not given)", "%", -15.7),
    ("CCOC(=O)C1Cc2ccc(OC)cc2C2=CC(=O)CCC21 (stereo not given)", "%", 5.4),
    ("CCC1(O)C(=O)OCc2c1cc1n(c2=O)Cc2cc3cc4c(cc3nc2-1)OCO4 (stereo not given)", "%", 90),
    ("CC1(C)N=C(N)N=C(N)N1c1ccc(CCc2ccc(S(=O)(=O)F)c(Cl)c2)c(Cl)c1", "%", 99.2),
    ("CC(=O)OCCCn1nc(COC(N)=O)c2c1CC(C)CC2=O (stereo not given)", "%", -14.8),
    ("CC[As](CC)SC(CC[C@@H](C)C1CC[C@@]2(C)C3=C(CC[C@]12C)[C@@]1(C)CC[C@H](O)C(C)(C)[C@@H]1CC3)C(C)C (stereo not given in full)", "%", -1.55),
    ("[C-]#[O+].[C-]#[O+].[C-]#[O+].[C-]#[O+].[Mo].c1cnc2c(c1)ccc1cccnc12", "%", 79.1),
    ("CC1(C)CN=C(Nc2ccc(F)c(F)c2)S1", "%", -12.8),
    ("CC(C)=NNC1=NC(CC(C)C)P(=O)(NCCCCNP2(=O)SC(NN=C(C)C)=NC2CC(C)C)S1 (stereo not given)", "%", -11.3),
    ("CC1=CC(C)C/C=C/C2C3OC3(C)C(C)C3C(Cc4c[nH]c5ccccc45)NC(=O)C23C(=O)C=CC(=O)C1O (stereo not given)", "%", 91.3),
    ("O=C(CC(=O)C(F)(F)F)c1ccco1", "%", -16.5),
    ("CC12CCC3C(CCC4=CC(=O)CCC43C=O)C1CCC2Oc1ccccc1 (stereo not given)", "%", 12.4),
]
